This collection of values is drawn from patent US20220356147A1.

Tested on: AB4106 and KPB9
protocol: Initial screen for colistin resistance suppression, statements in words for both strains
Assay type: cell-based, A. baumannii and K. pneumoniae
measurementSetup: compound at 5 μM
measuredProperty: Colistin potentiation activity in words, compared to IMD-0354

Prompt line: Requested read-out: Colistin potentiation activity in words, compared to IMD-0354. Entry: O=C(Nc1cc(C(F)(F)F)cc(C(F)(F)F)c1)c1cccc(Cl)c1
Response line: abrogated activity

Prompt line: Suppose we examine the compound COc1ccc(Cl)cc1C(=O)Nc1cc(C(F)(F)F)cc(C(F)(F)F)c1 ; what Colistin potentiation activity in words, compared to IMD-0354 value has been reported?
Response line: abrogated activity

Prompt line: // query Colistin potentiation activity in words, compared to IMD-0354 value for entry COc1ccc(NC(=O)c2cc(Cl)ccc2O)cc1
Response line: abolished activity

Prompt line: Query (compound): O=C(Nc1cc(C(F)(F)F)cc(C(F)(F)F)c1)c1ccc(O)c(Cl)c1 ; field requested: Colistin potentiation activity in words, compared to IMD-0354
Response line: abolished activity

----------
Tested on: AB 4112
protocol: Colistin potentiation, colistin-resistant isolate panel
Type: cell-based, A. baumannii
measurementSetup: compound at 5 μM
measuredProperty: Colistin MIC fold reduction, AB 4112

Some entries whose results are on file:
Prompt line: Would you mind telling me what Colistin MIC fold reduction, AB 4112 value was observed for O=C(Nc1ccc(C(F)(F)F)c(F)c1)c1cc(Cl)ccc1O [Compound 29] ?
Response line: (2048) fold

Prompt line: Entry O=C(Nc1cc(Br)cc(Br)c1)c1cc(Cl)ccc1O [Compound 23] has what Colistin MIC fold reduction, AB 4112?
Response line: (1024) fold

Prompt line: Please report the recorded Colistin MIC fold reduction, AB 4112 for O=C(Nc1cc(Cl)cc(Cl)c1)c1cc(I)ccc1O [Compound 51] .
Response line: (2048) fold

Prompt line: Entry under review: O=C(Nc1cc(C(F)(F)F)cc(C(F)(F)F)c1)c1cc(Cl)ccc1O [IMD-0354, reference compound] . Reported Colistin MIC fold reduction, AB 4112?
Response line: (1024) fold

Next:
Prompt line: Need Colistin MIC fold reduction, AB 4112, item O=C(Nc1cc(Br)cc(Br)c1)c1cc(I)ccc1O [Compound 52]
Response line: (2048) fold

----------
Tested on: AB 3942
protocol: Colistin potentiation, colistin-resistant isolate panel
Assay type: cell-based, A. baumannii
measurementSetup: compound at 5 μM
Below: a set of entries, each annotated with reported Colistin MIC against AB 3942.
Could you give me the number in µg/mL? Just the number is fine.

Prompt line: Colistin MIC against AB 3942 lookup needed for O=C(Nc1cc(C(F)(F)F)cc(C(F)(F)F)c1Br)c1cc(Cl)ccc1O [Compound 24] , thanks.
Response line: 0.5

Prompt line: # input compound: O=C(Nc1cc(C(F)(F)F)ccc1F)c1cc(Cl)ccc1O [Compound 28] ; wanted: its Colistin MIC against AB 3942
Response line: 2

Prompt line: Find the recorded Colistin MIC against AB 3942 belonging to O=C(Nc1cc(C(F)(F)F)cc(C(F)(F)F)c1Cl)c1cc(Cl)ccc1O [Compound 25] and report it.
Response line: 1

Turning to the following compound.
Prompt line: Tell me the measured Colistin MIC against AB 3942 of O=C(Nc1cc(C(F)(F)F)cc(C(F)(F)F)c1)c1cc(-c2ccccc2)ccc1O [Compound 13] , please.
Response line: 32

----------
Tested on: AB 4119
protocol: Colistin potentiation, colistin-resistant isolate panel
Type: cell-based, A. baumannii
measurementSetup: compound at 5 μM
measuredProperty: Colistin MIC fold reduction, AB 4119

Prompt line: May I ask what Colistin MIC fold reduction, AB 4119 has been recorded for O=C(Nc1ccc(C(F)(F)F)c(F)c1)c1cc(Cl)ccc1O [Compound 29] ?
Response line: (512) fold

Prompt line: Can you look up the measured Colistin MIC fold reduction, AB 4119 of O=C(Nc1cc(Br)cc(Br)c1)c1cc(I)ccc1O [Compound 52] for me?
Response line: (512) fold
